Cited source for all entries: patent US20250027068

# measured on: pooled human IgG (human IgG1,2,3 and 4)
measured metric: Enzyme Activity Endpoint Assay: scIgG (ng/µL)
Express your answer in ng/µL, writing the number without its unit.

Problem: For the protein PRT-502 (protein) MITSVWTKGVTPPTDFIKGEDVFHAPYKAGQGWYDITKAFDGGDDLLCGAATAGNMLHWWFDQNKEYIEAYLKKHPEKQKIMFGDQELLDVRKAINTKGSQKNSELFNYFRDKAFPNLSARRLGVMPDLVLDMFINGYYLNVTKTQTTDVNRQEQEKDKRGGIFDAVFGRGDQTKLLTSRHDFKEKGLNEISQLIKQELTEGKALGLSHTYANVRINHVINLWGADFDADGNLEAIYVTDSDSNASIGMKKYFVGVNSAGKVAISAKEIKEDNIGAQVLGLFTLSTGQKIWNKTNLEHHHHHH , what Enzyme Activity Endpoint Assay: scIgG is on record?
Solution: 296
